- TARGET OF ASSAY: Cdk9/cyclinT1 (Homo sapiens)
- Sequence (P50750 whole entry): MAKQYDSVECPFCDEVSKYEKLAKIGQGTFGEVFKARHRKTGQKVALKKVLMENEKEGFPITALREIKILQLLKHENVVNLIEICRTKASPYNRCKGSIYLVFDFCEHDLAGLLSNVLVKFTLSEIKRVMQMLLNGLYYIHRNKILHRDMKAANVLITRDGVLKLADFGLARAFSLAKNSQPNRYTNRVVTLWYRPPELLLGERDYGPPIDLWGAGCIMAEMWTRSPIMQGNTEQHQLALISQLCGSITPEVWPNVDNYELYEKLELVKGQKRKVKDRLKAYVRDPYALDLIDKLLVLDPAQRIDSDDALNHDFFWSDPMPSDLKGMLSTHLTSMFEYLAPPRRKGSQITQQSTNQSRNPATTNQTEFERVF
- Sequence (O60563 whole entry partner): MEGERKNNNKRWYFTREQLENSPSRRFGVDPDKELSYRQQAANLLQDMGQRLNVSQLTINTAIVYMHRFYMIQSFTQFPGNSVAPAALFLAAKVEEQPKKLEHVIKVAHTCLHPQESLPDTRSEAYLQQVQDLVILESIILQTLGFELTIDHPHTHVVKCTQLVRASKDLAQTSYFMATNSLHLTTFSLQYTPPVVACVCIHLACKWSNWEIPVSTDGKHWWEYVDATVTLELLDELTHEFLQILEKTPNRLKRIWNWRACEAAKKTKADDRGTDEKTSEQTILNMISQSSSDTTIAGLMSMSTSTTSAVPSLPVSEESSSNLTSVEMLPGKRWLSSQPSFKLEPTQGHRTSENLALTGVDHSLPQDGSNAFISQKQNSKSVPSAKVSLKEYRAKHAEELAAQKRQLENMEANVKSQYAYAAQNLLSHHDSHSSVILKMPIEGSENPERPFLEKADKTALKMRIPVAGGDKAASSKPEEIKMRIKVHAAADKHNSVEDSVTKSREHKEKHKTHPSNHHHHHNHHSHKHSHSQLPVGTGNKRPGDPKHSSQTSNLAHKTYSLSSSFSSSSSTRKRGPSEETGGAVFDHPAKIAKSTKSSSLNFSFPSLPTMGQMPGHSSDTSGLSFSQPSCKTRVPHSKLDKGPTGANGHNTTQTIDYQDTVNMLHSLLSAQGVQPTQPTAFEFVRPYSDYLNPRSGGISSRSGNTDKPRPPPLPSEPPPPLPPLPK
- ASSAY PROCEDURE: Cdk9/cyclinT1 kinase assay (IMAP or Alpha Screen protocol)
RECORDED ENDPOINT: IC50 (nM)

The cases that follow already have their IC50 on record.
O=C(Nc1cc(-c2cncc(NCC3CCOCC3)n2)c(Cl)cn1)C1CNCCO1 (centres unmarked) [Example 21]; 12.8
O=C(Nc1cc(-c2cncc(NC[C@H]3CCCO3)n2)c(Cl)cn1)[C@@H]1CCCNC1 [Example 31]; 19

[a] O=C(Nc1cc(-c2cncc(NCC3CCOCC3)n2)c(Cl)cn1)[C@@H]1CCCN1 [Example 40]
[b] CS(=O)(=O)N1CCC[C@H](C(=O)Nc2cc(-c3cncc(NCC4CCOCC4)n3)c(C(F)(F)F)cn2)C1 [Example 65]
Please let me know which one, a or b , has a lower measured IC50 value. Let me know the label of the one you choose.
a

---

- TARGET OF ASSAY: Cdk9/cyclinT1 (Homo sapiens)
- ASSAY PROCEDURE: Cdk9/cyclinT1 kinase assay (IMAP or Alpha Screen protocol)
pIC50: −log10 of the molar value.
RECORDED ENDPOINT: pIC50

The cases that follow already have their pIC50 on record.
CC(C)C(=O)Nc1cc(-c2cncc(NCC3CCOCC3)n2)c(C(F)(F)F)cn1; 6.84
O=C(Nc1cc(-c2cncc(NCC3CCOCC3)n2)c(C(F)(F)F)cn1)C1CCOCC1; 6.00
O=C(Nc1cc(-c2cncc(N[C@@H]3CC34CCOCC4)n2)c(Cl)cn1)[C@@H]1CCCNC1; 7.33
CC(C)S(=O)(=O)N1CCC[C@H](C(=O)Nc2cc(-c3cncc(NCC4CCOCC4)n3)c(C(F)(F)F)cn2)C1; 6.88
CS(=O)(=O)N1CCC[C@@H](C(=O)Nc2cc(-c3cncc(NCC4CCOCC4)n3)c(Cl)cn2)C1; 6.75

[I] COCCNc1cncc(-c2cc(NC(=O)[C@@H]3CCCNC3)ncc2Cl)n1
[II] COCCN1CCC[C@@H](C(=O)Nc2cc(-c3cncc(NCC4CCOCC4)n3)c(Cl)cn2)C1
Please let me know which one, I or II , has a lower measured pIC50 value. Let me know the label of the one you choose.
II

---

- TARGET OF ASSAY: Cdk9/cyclinT1 (Homo sapiens)
- ASSAY PROCEDURE: Cdk9/cyclinT1 kinase assay (IMAP or Alpha Screen protocol)
RECORDED ENDPOINT: IC50 (nM)

[P] O=C(Nc1cc(-c2cncc(NCC3CCOCC3)n2)c(Cl)cn1)[C@H]1CCCNC1
[Q] CC(=O)N1CCC[C@@H](C(=O)Nc2cc(-c3cncc(NCC4CCOCC4)n3)c(Cl)cn2)C1
Hi team, can someone confirm which has the larger IC50: P or Q ? Thanks. Let me know the label of the one you choose.
Q
(Q: 268 nM, P: 28 nM)

---

- TARGET OF ASSAY: Cdk9/cyclinT1 (Homo sapiens)
- ASSAY PROCEDURE: Cdk9/cyclinT1 kinase assay (IMAP or Alpha Screen protocol)
RECORDED ENDPOINT: IC50 (nM)

CN(CC1CCOCC1)c1cncc(-c2cc(NC(=O)[C@@H]3CCCNC3)ncc2Cl)n1 [Example 30]; 12

[I] O=C(Nc1cc(-c2cncc(NCc3cccnc3)n2)c(Cl)cn1)[C@@H]1CCCNC1 [Example 25]
[II] CC(=O)Nc1cc(-c2cncc(NCC3CCOCC3)n2)c(Cl)cn1 [Example 11]
Hi team, can someone confirm which has the larger IC50: I or II ? Thanks. Let me know the label of the one you choose.
II

[P] C[C@@H](O)CNc1cncc(-c2cc(NC(=O)[C@@H]3CCCNC3)ncc2Cl)n1 [Example 28]
[Q] O=C(Nc1cc(-c2cncc(Cl)n2)c(Cl)cn1)[C@@H]1CCCNC1 [Example 38]
[R] O=C(Nc1cc(-c2cnccn2)c(Cl)cn1)[C@@H]1CCCNC1 [Example 1]
Number of molecules to sort: 3. Sort criterion: IC50, ascending. # answer = labels listed in requested order
P, Q, R
